Test system: HEK293
protocol-text: Selectivity index, ratio of Ki for human CB1 receptor expressed in HEK293 cell membranes to Ki for human CB2 receptor expressed in HEK293 cell membranes
Type: cell-based
reported-property: Ratio Ki

compound	reported-measurement
CCc1c(C(=O)NC(C)c2ccccc2)cc(C)n1-c1ccccc1 (stereo not drawn)	6.92
CCc1c(C(=O)Nc2cccc3ccccc23)cc(C)n1-c1ccccc1	25
CCc1c(C(=O)NC2CCCCC2)cc(C)n1-c1ccccc1	> 26.8
CCOC(=O)c1c(NS(=O)(=O)c2cccc3ccccc23)sc2c1CCCC2	> 12.5
CCOC(=O)c1c(NC(=O)CCc2ccccc2)sc2c1CCCC2	> 89.4
CCOC(=O)c1cc(-c2ccccc2)sc1NC(=O)c1cccc2ccccc12	> 167
CCc1c(C(=O)NCCc2ccccc2)cc(C)n1-c1ccccc1	> 13.9

Exercise: Give its Ratio Ki value. Item: "CCOC(=O)c1c(NC(=O)c2cccc3ccccc23)sc2c1CCCC2"
Key: 80 to 81.7

====

The following molecules are listed with their measured Ratio Ki values.
Test system: HEK293
protocol-text: Selectivity index, ratio of Ki for human CB1 receptor expressed in HEK293 cell membranes to Ki for human CB2 receptor expressed in HEK293 cell membranes
Format: cell-based
Just the number.

For orientation, consider the following solved cases.
molecule	Ratio Ki
Cc1cc(C(=O)Nc2ccc3ccccc3c2)c(C)n1-c1ccccc1	4.82
Cc1cc(C(=O)NC(C)c2ccccc2)c(C)n1-c1ccccc1 (stereo unspecified)	4.8

Exercise: Give its Ratio Ki value. Item: "Cc1cc(C(=O)NCCc2ccccc2)c(C)n1-c1ccccc1"
Key: 10.2

Exercise: Give its Ratio Ki value. Item: "CCc1c(C(=O)Nc2ccc3ccccc3c2)cc(C)n1-c1ccccc1"
Key: 11.1

Exercise: Give its Ratio Ki value. Item: "Cc1cc(C(=O)NC23CC4CC(CC(C4)C2)C3)c(C)n1-c1ccccc1"
Key: 68.3

Exercise: Give its Ratio Ki value. Item: "Cc1cc(C(=O)Nc2cccc3ccccc23)c(C)n1-c1ccccc1"
Key: 3.76

====

The following compounds are listed with their measured pKi values.
measured-target: Cannabinoid receptor 2 (Homo sapiens)
FYI, pKi means -log10 of a concentration in mol per litre.

For orientation, consider the following solved cases.
compound	pKi
CCc1c(C(=O)NC23CC4CC(CC(C4)C2)C3)cc(C)n1-c1ccccc1	8.21
CCc1c(C(=O)Nc2ccc3ccccc3c2)cc(C)n1-c1ccccc1	7.24
CCc1c(C(=O)NC(C)c2ccccc2)cc(C)n1-c1ccccc1 (stereo unspecified)	6.27
Cc1cc(C(=O)NC(C)c2ccccc2)c(C)n1-c1ccccc1 (stereo unspecified)	6.26
CCOC(=O)c1c(NC(=O)C23CC4CC(CC(C4)C2)C3)sc2c1CCCC2	8.67

Exercise: API: value(readout= pKi, system= Cannabinoid receptor 2 (Homo sapiens), query= "Cc1cc(C(=O)Nc2cccc3ccccc23)c(C)n1-c1ccccc1" )
Key: 7.07

Exercise: API: value(readout= pKi, system= Cannabinoid receptor 2 (Homo sapiens), query= "CCc1c(C(=O)NC2CCCCC2)cc(C)n1-c1ccccc1" )
Key: 6.77

====

measured-target: Cannabinoid receptor 2 (Homo sapiens, UniProt P34972)
Sequence (P34972 whole entry): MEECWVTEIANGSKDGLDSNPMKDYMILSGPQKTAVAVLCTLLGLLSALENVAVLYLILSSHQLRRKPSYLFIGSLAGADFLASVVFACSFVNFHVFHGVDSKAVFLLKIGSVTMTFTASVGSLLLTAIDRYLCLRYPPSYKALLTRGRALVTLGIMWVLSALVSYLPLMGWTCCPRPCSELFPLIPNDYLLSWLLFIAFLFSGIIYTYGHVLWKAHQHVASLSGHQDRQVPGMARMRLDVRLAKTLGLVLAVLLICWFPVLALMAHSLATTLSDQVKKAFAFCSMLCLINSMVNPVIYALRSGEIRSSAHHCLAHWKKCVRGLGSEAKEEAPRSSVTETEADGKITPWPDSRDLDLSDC
protocol-text: Displacement of [3H]-CP-55940 from human CB2 receptor expressed in HEK293 cell membranes after 90 mins by radioligand binding assay
reported-property: Ki

For orientation, consider the following solved cases.
smiles-repr	Ki
CCOC(=O)c1cc(-c2ccccc2)sc1NS(=O)(=O)c1ccccc1	> 10000 nM
CCOC(=O)c1c(NS(=O)(=O)c2ccc3ccccc3c2)sc2c1CCCC2	> 10000 nM

Exercise: Give its Ki value. Item: "CCOC(=O)c1cc(-c2ccccc2)sc1NS(C)(=O)=O"
Key: > 10000 nM
